B1: FERM and PDZ domain-containing protein 4, residues 75 to 154; numbered along this chain, Q14CM0 (parent)
chain: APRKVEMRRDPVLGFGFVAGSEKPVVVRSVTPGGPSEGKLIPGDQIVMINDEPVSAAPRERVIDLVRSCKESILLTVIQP

# Variants of: B1
# method.summary: abundance fitness (aPCA) (normalised: wild type 0, dead -1); higher = more abundant; growth selection in yeast, the domain comes from the species named
# condition.details: Homo sapiens
Kind request: treat -0.06 as inclusive, so abundance fitness at -0.06 or higher is true, anything lower is false.

Check out these entries, answers already filled in.
{"mutations": "P35S", "label.class": "false"}
{"mutations": "I49A", "label.class": "false"}
{"mutations": "L65I", "label.class": "true"}
{"mutations": "V18H", "label.class": "true"}
{"mutations": "V54D", "label.class": "false"}

# input for lookup
In: Check the entry `G20Q` : does abundance fitness equal or exceed -0.06?
Out: true
